Where do the numbers come from? From paper PMC8286619.

target-entity: xanthine oxidase (XO) (Bos taurus)
Sequence (P80457 2-1332): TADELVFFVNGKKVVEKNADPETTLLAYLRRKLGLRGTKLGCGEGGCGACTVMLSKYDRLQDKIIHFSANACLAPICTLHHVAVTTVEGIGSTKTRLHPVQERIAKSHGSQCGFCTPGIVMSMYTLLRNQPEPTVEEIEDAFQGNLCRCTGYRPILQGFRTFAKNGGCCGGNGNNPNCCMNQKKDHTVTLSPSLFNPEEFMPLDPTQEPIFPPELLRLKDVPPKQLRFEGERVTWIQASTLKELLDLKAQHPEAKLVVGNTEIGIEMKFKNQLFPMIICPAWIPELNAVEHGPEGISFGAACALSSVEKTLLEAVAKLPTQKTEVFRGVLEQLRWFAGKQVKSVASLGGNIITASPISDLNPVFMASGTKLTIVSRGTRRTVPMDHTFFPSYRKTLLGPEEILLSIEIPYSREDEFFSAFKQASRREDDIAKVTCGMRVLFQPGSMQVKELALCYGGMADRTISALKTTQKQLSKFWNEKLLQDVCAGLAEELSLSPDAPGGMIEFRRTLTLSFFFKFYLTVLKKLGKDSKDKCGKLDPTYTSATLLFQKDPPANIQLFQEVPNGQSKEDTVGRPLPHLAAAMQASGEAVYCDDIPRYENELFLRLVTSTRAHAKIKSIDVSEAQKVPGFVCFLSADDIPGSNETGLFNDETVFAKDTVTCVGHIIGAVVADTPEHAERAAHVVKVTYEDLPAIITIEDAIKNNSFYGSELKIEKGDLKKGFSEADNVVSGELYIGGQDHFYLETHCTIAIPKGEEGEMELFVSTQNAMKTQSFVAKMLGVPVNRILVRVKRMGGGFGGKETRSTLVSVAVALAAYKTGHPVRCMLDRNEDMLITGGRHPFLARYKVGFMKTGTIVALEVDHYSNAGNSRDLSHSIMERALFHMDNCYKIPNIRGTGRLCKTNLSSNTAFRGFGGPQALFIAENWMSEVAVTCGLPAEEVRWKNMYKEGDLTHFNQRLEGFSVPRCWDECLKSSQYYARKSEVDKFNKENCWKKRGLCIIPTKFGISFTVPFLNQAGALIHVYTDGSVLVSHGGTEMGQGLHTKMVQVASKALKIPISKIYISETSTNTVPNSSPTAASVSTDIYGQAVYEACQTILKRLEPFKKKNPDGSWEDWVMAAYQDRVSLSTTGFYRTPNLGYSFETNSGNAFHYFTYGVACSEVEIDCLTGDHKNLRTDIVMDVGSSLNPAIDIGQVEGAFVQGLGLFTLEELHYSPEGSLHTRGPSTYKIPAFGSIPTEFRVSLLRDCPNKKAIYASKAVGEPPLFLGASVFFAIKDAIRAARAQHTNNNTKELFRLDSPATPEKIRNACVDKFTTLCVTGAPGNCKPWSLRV
endpoint-label: Kd (µM)

>>> experimental_result("CC1=CC(=O)c2c(O)cccc2C1=O [PLB, Plumbagin]")
0.499
